B1: Receptor-interacting serine/threonine-protein kinase 2, residues 438 to 518; numbered along this chain, O43353 (parent)
chain: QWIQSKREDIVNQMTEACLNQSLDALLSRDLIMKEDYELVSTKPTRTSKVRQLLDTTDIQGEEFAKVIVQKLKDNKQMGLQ

Variants of: B1
Experiment: abundance fitness (aPCA) (normalised: wild type 0, dead -1); higher = more abundant; growth selection in yeast, the domain comes from the species named
Settings: Homo sapiens
readoutKind: abundance fitness
Reply with the value as a number alone.

Please report the recorded abundance fitness for QWIQSKREDIVNQMTEACLNQSLDALLSRDLIMKEDYELVSTKPTRTSKVRQLLDTTDIQGENFAKVIVQKLKDNKQMGLQ .
-0.646
